Below is a list of entries, each paired with its recorded CC50 value.
Tested on: A-549
assay name: SRB colorimetric assay of cell growth and viability, A-549
Assay type: cell-based, human
experimental parameters: 48 hours exposure; read-out: LC50 A-549

| molecule | CC50 |
| --- | --- |
| C/C=C1\NC(=O)[C@H](Cc2ccccc2)NC(=O)[C@@H](C(C)C)NC(=O)[C@@H]([C@@H](C)CC)NC(=O)[C@H](NC(=O)[C@H](NC(=O)[C@H](CCCN)NC(=O)[C@H]2CCCN2C(=O)[C@H](NC(=O)[C@@H](NC(=O)[C@@H](NC(=O)[C@@H](Cc2ccccc2)NC(=O)CCCC(C)C)[C@@H](C)O)C(C)C)C(C)C)[C@@H](C)CC)[C@@H](C)OC(=O)[C@H](C(C)C)NC1=O [Compound 36, [D-Phe^13]-KF] | 0.99 µM |
| C/C=C1\NC(=O)[C@H](Cc2ccccc2)NC(=O)[C@@H](C(C)C)NC(=O)[C@@H]([C@@H](C)CC)NC(=O)[C@H](NC(=O)[C@H](NC(=O)[C@H](CCCN)NC(=O)[C@H]2CCCN2C(=O)[C@H](NC(=O)[C@@H](NC(=O)[C@@H](NC(=O)[C@H](NC(=O)CCCC(C)C)[C@H](C)O)[C@@H](C)O)C(C)C)C(C)C)[C@@H](C)CC)[C@@H](C)OC(=O)[C@H](C(C)C)NC1=O [Compound 41, [D-Thr^13]-KF] | 4.53 µM |
| C/C=C1\NC(=O)[C@H](Cc2ccccc2)NC(=O)[C@@H](C(C)C)NC(=O)[C@@H]([C@@H](C)CC)NC(=O)[C@H](NC(=O)[C@H](NC(=O)[C@H](CCCN)NC(=O)[C@H]2CCCN2C(=O)[C@H](NC(=O)[C@@H](NC(=O)[C@@H](NC(=O)[C@H](NC(=O)CC[C@H](C)CC)C(C)C)[C@@H](C)O)C(C)C)C(C)C)[C@@H](C)CC)[C@@H](C)OC(=O)[C@H](C(C)C)NC1=O [Compound 16, [(4R)-MeHex^14]-KF] | 4.24 µM |

====

Test system: K-562
assay name: SRB colorimetric assay of cell growth and viability, K-562
Type: cell-based, human
experimental parameters: 48 hours exposure; read-out: LC50 K-562
Where a SMILES comes first, the peptide text is derived from it. Bridges are numbered along the chain shown (N, C = ends). [ ]: non-standard residue; d: D form. The star is where a group is joined. d(aIle) = CC[C@H](C)[C@@H](N)C(=O)O; d(aThr) = C[C@@H](O)[C@@H](N)C(=O)O; Hexanoyl(5-Me) = CC(C)CCCC(=O)*; Orn = NCCC[C@H](N)C(=O)O; Dhb = C/C=C(\N)C(=O)O

| compound | uom | qualifier sign | CC50 |
| --- | --- | --- | --- |
| C/C=C1\NC(=O)[C@H](Cc2ccccc2)NC(=O)[C@@H](C(C)C)NC(=O)[C@@H]([C@@H](C)CC)NC(=O)[C@H](NC(=O)[C@H](NC(=O)[C@H](CCC(=O)O)NC(=O)[C@H]2CCCN2C(=O)[C@H](NC(=O)[C@@H](NC(=O)[C@@H](NC(=O)[C@H](NC(=O)CCCC(C)C)C(C)C)[C@@H](C)O)C(C)C)C(C)C)[C@@H](C)CC)[C@@H](C)OC(=O)[C@H](C(C)C)NC1=O [Compound 4, [Glu^8]-KF] ({Hexanoyl(5-Me)}-[dV]TV[dV][dP]E[d(aIle)][d(aThr)][d(aIle)][dV]F[Dhb]V; ester 8-C) | µM | = | 6.7 |
| C/C=C1\NC(=O)[C@H](Cc2ccccc2)NC(=O)[C@@H](C(C)C)NC(=O)[C@@H]([C@@H](C)CC)NC(=O)[C@H](NC(=O)[C@H](NC(=O)[C@H](CCCN)NC(=O)[C@H]2CCCN2C(=O)[C@H](NC(=O)[C@@H](NC(=O)[C@@H](NC(=O)[C@H](NC(=O)CCCC(C)C)C(C)C)[C@@H](C)O)C(C)C)C(C)C)[C@@H](C)CC)COC(=O)[C@H](C(C)C)NC1=O [Compound 3, [D-Ser^6]-KF] ({Hexanoyl(5-Me)}-[dV]TV[dV][dP][Orn][d(aIle)][dS][d(aIle)][dV]F[Dhb]V; ester 8-C) | µM | ≥ | 6.83 |
| C/C=C1\NC(=O)[C@H](Cc2ccccc2)NC(=O)[C@@H](C(C)C)NC(=O)[C@@H]([C@@H](C)CC)NC(=O)[C@H](NC(=O)[C@H](NC(=O)[C@H](CCCN)NC(=O)[C@H]2CCCN2C(=O)[C@H](NC(=O)[C@H](C)NC(=O)[C@@H](NC(=O)[C@H](NC(=O)CCCC(C)C)C(C)C)[C@@H](C)O)C(C)C)[C@@H](C)CC)[C@@H](C)OC(=O)[C@H](C(C)C)NC1=O [Compound 44, [Ala^11]-KF] ({Hexanoyl(5-Me)}-[dV]TA[dV][dP][Orn][d(aIle)][d(aThr)][d(aIle)][dV]F[Dhb]V; ester 8-C) | µM | = | 6.9 |
| C/C=C1\NC(=O)[C@H](Cc2ccccc2)NC(=O)[C@@H](C(C)C)NC(=O)[C@@H]([C@@H](C)CC)NC(=O)[C@H](NC(=O)[C@H](NC(=O)[C@H](CCCN)NC(=O)[C@H]2CCCN2C(=O)[C@H](NC(=O)[C@@H](NC(=O)[C@@H](NC(=O)[C@H](NC(=O)CCCCCCCCCC)C(C)C)[C@@H](C)O)C(C)C)C(C)C)[C@@H](C)CC)[C@@H](C)OC(=O)[C@H](C(C)C)NC1=O [Compound 15, [Und^14]-KF] | µM | = | 4.1 |
| C/C=C1\NC(=O)[C@H](Cc2ccccc2)NC(=O)[C@@H](C(C)C)NC(=O)[C@@H]([C@@H](C)CC)NC(=O)[C@H](NC(=O)[C@H](NC(=O)[C@H](CCCN)NC(=O)[C@H]2CCCN2C(=O)[C@H](NC(=O)[C@@H](NC(=O)[C@@H](NC(=O)[C@@H](CC2CCCCC2)NC(=O)CCCC(C)C)[C@@H](C)O)C(C)C)C(C)C)[C@@H](C)CC)[C@@H](C)OC(=O)[C@H](C(C)C)NC1=O [Compound 8, [D-Cha^13]-KF] | µM | = | 6.53 |
